Test system: MDA-MB-231
Experiment: NCI tumour cell line growth inhibition, 48 h
Activity calls are given as the source filed them. Rule as the data show it: active = GI50 up to about 1.1 µM and inactive = higher.
endpoint-label: GI50

Query :: Identify measured GI50 corresponding to `Cc1cn([C@@H]2O[C@H](CO[Si](C)(C)C(C)(C)C)[C@]3(O[C@H]3C(=O)NO)[C@H]2O[Si](C)(C)C(C)(C)C)c(=O)[nH]c1=O`
Result :: 2.09 µM (inactive)

Query :: Identify measured GI50 corresponding to `CC(C)/C(Cl)=N/OC(=O)Nc1ccc(Cl)c(Cl)c1`
Result :: 14.9 µM (inactive)

Query :: Identify measured GI50 corresponding to CCCCCC(/C=C/C1CCC(=O)C1)OCOCCOC (configuration not stated)
Result :: 69.8 µM (inactive)

Query :: Identify measured GI50 corresponding to `Cc1[nH]n(-c2nc3c(c(=O)[nH]2)CCC3)c(=O)c1CCO`
Result :: > 100 µM (inactive)

Query :: Identify measured GI50 corresponding to OC(c1ccsc1)c1cc2ccccc2s1 (configuration not stated)
Result :: > 10 µM (inactive)

Query :: Identify measured GI50 corresponding to `O=C(O)C[n+]1cn(NC(=O)Cc2ccccc2)cn1`
Result :: > 10 µM (inactive)

Query :: Identify measured GI50 corresponding to CC(C)(C)C(=O)OC(N)/C=C/c1ccccc1 (configuration not stated)
Result :: > 100 µM (inactive)

Query :: Identify measured GI50 corresponding to CC(=O)NC1C(CO)O[C@@H]2OC(C)(C)O[C@H]12 (some centres not stated)
Result :: > 100 µM (inactive)

Query :: Identify measured GI50 corresponding to `O=C(ON=c1c2ccccc2ccc2ccccc12)c1ccccc1`
Result :: 22.9 µM (inactive)

Query :: Identify measured GI50 corresponding to `Cc1cccc2c(N)c3cccc(C(=O)NCC[N+](C)(C)[O-])c3nc12`
Result :: 20.4 µM (inactive)

Query :: Identify measured GI50 corresponding to CC(=O)OCC1OC(n2c(C)c(/N=N/c3ccc(Cl)cc3)c(C)c(C#N)c2=S)C(OC(C)=O)C(OC(C)=O)C1OC(C)=O (configuration not stated)
Result :: 65.2 µM (inactive)

Query :: Identify measured GI50 corresponding to `CCOP(=O)(OCC)/C(C#N)=C(\C)c1ccco1`
Result :: > 10 µM (inactive)

Query :: Identify measured GI50 corresponding to `c1cc(CSSCc2ccncc2)ccn1`
Result :: 25.9 µM (inactive)

Query :: Identify measured GI50 corresponding to `CN(C)CCCNC(=O)c1cc(NC(=O)c2cc(NC(=O)[C@@H]3C[C@H]3C(=O)Nc3cc(C(=O)Nc4cc(C(=O)NCCCN(C)C)n(C)c4)n(C)c3)cn2C)cn1C`
Result :: > 100 µM (inactive)

Query :: Identify measured GI50 corresponding to `C[Si](C)(C)C#CCO[Si](C)(C)C`
Result :: > 50.2 µM (inactive)

Query :: Identify measured GI50 corresponding to `O=[N+]([O-])/C(C(Cl)=C(Cl)Cl)=C(/Nc1ccccc1)SCc1ccccc1`
Result :: 19.9 µM (inactive)

Query :: Identify measured GI50 corresponding to COc1ccc(C(OCC2OC(n3cc(C)c(=O)[nH]c3=O)CC2n2cc(Cn3cc(Br)c(=O)[nH]c3=O)nn2)(c2ccccc2)c2ccccc2)cc1 (configuration not stated)
Result :: > 100 µM (inactive)
